Target: Bcl-2-related protein A1 (Homo sapiens)
Sequence (Q16548 whole entry, the tested form may be a part): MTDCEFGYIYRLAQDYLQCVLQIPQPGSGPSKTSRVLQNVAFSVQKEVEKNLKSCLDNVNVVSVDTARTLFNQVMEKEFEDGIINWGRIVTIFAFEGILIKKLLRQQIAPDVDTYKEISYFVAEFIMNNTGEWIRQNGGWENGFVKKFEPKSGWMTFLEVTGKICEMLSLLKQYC
Experiment: Inhibition of N-terminal His6-tagged recombinant human Bfl-1 (1 to 151 residues) expressed in Escherichia coli BL21-Gold (DE3) using HyLite Fluor 647-labeled BIM peptide as substrate incubated for 120 mins by TR-FRET assay
pIC50: −log10 of the molar value.
Experimental readout: pIC50

* CP(C)(=O)c1ccccc1/C=C(\C#N)C(=O)NCCc1ccc(C(F)(F)F)cc1 | 4.64
* CN(C)C(=O)[C@H](Cc1ccc(C(F)(F)F)cc1)NC(=O)/C(C#N)=C/c1ccccc1P(C)(C)=O | 4.54
* CP(C)(=O)c1ccccc1/C=C(\C#N)C(=O)NCC1(c2ccc(C(F)(F)F)cc2)CC1 | 5.37
* CP(C)(=O)c1ccccc1/C=C(\C#N)C(=O)NCCc1ccc(Cl)cc1 | 4.27
* CP(C)(=O)c1ccccc1/C=C(\C#N)C(=O)NCC1(c2ccccc2)CC1 | 4.30
* CP(C)(=O)c1ccccc1/C=C(\C#N)C(=O)NCCc1ccc(Cl)c(Cl)c1 | 4.57

---

Molecular target: Induced myeloid leukemia cell differentiation protein Mcl-1 (Homo sapiens, UniProt Q07820)
Sequence (Q07820 whole entry): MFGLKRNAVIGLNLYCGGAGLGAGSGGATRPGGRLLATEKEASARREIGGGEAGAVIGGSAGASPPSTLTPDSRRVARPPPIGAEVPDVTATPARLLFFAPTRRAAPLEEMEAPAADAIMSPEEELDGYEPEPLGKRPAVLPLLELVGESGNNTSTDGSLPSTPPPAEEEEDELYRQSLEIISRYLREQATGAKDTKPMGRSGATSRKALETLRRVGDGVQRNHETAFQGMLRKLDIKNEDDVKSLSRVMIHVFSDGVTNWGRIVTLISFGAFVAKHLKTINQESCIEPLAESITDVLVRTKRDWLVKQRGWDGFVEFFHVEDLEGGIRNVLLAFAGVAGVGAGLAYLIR
Assay: Inhibition of Mcl-1 (unknown origin) incubated for 120 mins by TR-FRET assay
Experimental readout: IC50

* CN(C)C(=O)[C@H](Cc1ccc(C(F)(F)F)cc1)NC(=O)/C(C#N)=C/c1ccccc1P(C)(C)=O | > 100 µM

---

Target: Bcl-2-like protein 1 (Homo sapiens, UniProt Q07817)
Sequence (Q07817 whole entry): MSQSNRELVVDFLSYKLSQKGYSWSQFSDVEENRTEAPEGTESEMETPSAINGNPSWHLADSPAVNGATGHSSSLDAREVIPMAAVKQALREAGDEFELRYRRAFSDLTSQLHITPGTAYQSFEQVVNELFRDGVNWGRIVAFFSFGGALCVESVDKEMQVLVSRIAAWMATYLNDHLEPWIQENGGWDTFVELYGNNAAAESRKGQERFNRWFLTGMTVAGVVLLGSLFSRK
pIC50: −log10 of the molar value.
Experimental readout: pIC50

- CN(C)C(=O)[C@H](Cc1ccc(C(F)(F)F)cc1)NC(=O)/C(C#N)=C/c1ccccc1P(C)(C)=O: < 4.00

---

Some compounds, each annotated with its measured logD.
Assay: Lipophilicity, logD of compound in octanol/water at pH 7.4 by shake-flask method
Format: physicochemical
Experimental readout: logD

* CP(C)(=O)c1ccccc1/C=C(\C#N)C(=O)NCCc1ccc(Cl)c(Cl)c1 | 1.9
* CN(C)C(=O)[C@H](Cc1ccc(C(F)(F)F)cc1)NC(=O)/C(C#N)=C/c1ccccc1 | 3.9
* CN(C)C(=O)[C@H](Cc1ccc(C(F)(F)F)cc1)NC(=O)/C(C#N)=C/c1ccccc1S(C)(=O)=O | 2.6
* CN(C)C(=O)[C@H](Cc1ccc(C(F)(F)F)cc1)NC(=O)/C(C#N)=C/c1ccc(P(C)(C)=O)cc1 | 2.1
* CN(C)C(=O)C(Cc1ccc(C(F)(F)F)cc1)NC(=O)/C(C#N)=C/c1ccccc1S(=O)(=O)N(C)C (racemic) | 3.2
* CP(C)(=O)c1ccccc1/C=C(\C#N)C(=O)NCCc1ccc(Cl)cc1 | 2.3
* CN(C)C(=O)[C@H](Cc1ccc(C(F)(F)F)cc1)NC(=O)/C(C#N)=C/c1ccccc1P(C)(C)=O | 2
* CP(C)(=O)c1ccccc1/C=C(\C#N)C(=O)NCCc1ccc(C(F)(F)F)cc1 | 2.7
* CP(C)(=O)c1ccccc1/C=C(\C#N)C(=O)NCC1(c2ccc(C(F)(F)F)cc2)CC1 | 3
